- Tested on: A2780 cells
- assay.remarks: SRB binding assay, cytostasis, 48 h treatment
- Assay type: cell-based
pIC50: −log10 of the molar value.
endpoint: pIC50

compound | pIC50
Cc1c(C)c(C)[c-](C)c1C.F[P-](F)(F)(F)(F)F.N[C@@H]1[C@@H](OC(=O)c2ccccc2)[C@H](OC(=O)c2ccccc2)[C@@H](COC(=O)c2ccccc2)O[C@H]1c1ccccn1.[Cl][Ir+2] [Ir-7a] | 5.21
Cc1ccc(C(C)C)cc1.F[P-](F)(F)(F)(F)F.N[C@@H]1[C@@H](OCc2ccccc2)[C@H](OCc2ccccc2)[C@@H](COCc2ccccc2)O[C@H]1c1cnccn1.[Cl][Os+] [Os-3d] | 5.17
Cc1c(C)c(C)[c-](C)c1C.F[P-](F)(F)(F)(F)F.N[C@@H]1[C@@H](OC(=O)c2ccccc2)[C@H](OC(=O)c2ccccc2)[C@@H](COC(=O)c2ccccc2)O[C@H]1c1ccccn1.[Cl][Rh+2] [Rh-7a] | 4.74
Cc1ccc(C(C)C)cc1.F[P-](F)(F)(F)(F)F.N[C@@H]1[C@@H](OC(=O)c2ccccc2)[C@H](OC(=O)c2ccccc2)[C@@H](COC(=O)c2ccccc2)O[C@H]1c1ccccn1.[Cl][Ru+] [Ru-7a] | 5.39
Cc1ccc(C(C)C)cc1.F[P-](F)(F)(F)(F)F.N[C@@H]1[C@@H](OCc2ccccc2)[C@H](OCc2ccccc2)[C@@H](COCc2ccccc2)O[C@H]1c1ccccn1.[Cl][Ru+] [Ru-3a] | 5.73

I. Cc1c(C)c(C)[c-](C)c1C.F[P-](F)(F)(F)(F)F.NC1C(c2cccnn2)OC(COC(=O)c2ccccc2)C(OC(=O)c2ccccc2)C1OC(=O)c1ccccc1.[Cl][Rh+2] (mixture of isomers) [Rh-7b]
II. Cc1ccc(C(C)C)cc1.F[P-](F)(F)(F)(F)F.NC1C(c2cccnn2)OC(COC(=O)c2ccccc2)C(OC(=O)c2ccccc2)C1OC(=O)c1ccccc1.[Cl][Os+] (mixture of isomers) [Os-7b]
(Q) Recorded pIC50 values differ for I and II ; which one is higher? // output: label of the selected item
(A) I

I. N[C@@H]1[C@@H](OCc2ccccc2)[C@H](OCc2ccccc2)[C@@H](COCc2ccccc2)O[C@H]1c1ccccn1 [Complex 3a]
II. Cc1c(C)c(C)[c-](C)c1C.F[P-](F)(F)(F)(F)F.N[C@@H]1[C@@H](OCc2ccccc2)[C@H](OCc2ccccc2)[C@@H](COCc2ccccc2)O[C@H]1c1ccccn1.[Cl][Rh+2] [Rh-3a]
(Q) Which numeric pIC50 is bigger, that of I or that of II ? Write the label of whichever entry you select.
(A) II

----------
- Test system: methicillin-resistant Staphylococcus aureus (MRSA) clinical isolates
- assay.remarks: Broth microdilution MIC, clinical MRSA isolates
- Type: cell-based
- condition.set: clinical isolate 24,328 MRSA; 24 h, 0.08–40 μM; read-out: MIC 24,328 MRSA
endpoint: MIC (µM)

molecule | MIC (µM)
Cc1ccc(C(C)C)cc1.F[P-](F)(F)(F)(F)F.N[C@@H]1[C@@H](OCc2ccccc2)[C@H](OCc2ccccc2)[C@@H](COCc2ccccc2)O[C@H]1c1cnccn1.[Cl][Os+] | 40

a. Cc1c(C)c(C)[c-](C)c1C.F[P-](F)(F)(F)(F)F.N[C@@H]1[C@@H](OCc2ccccc2)[C@H](OCc2ccccc2)[C@@H](COCc2ccccc2)O[C@H]1c1ccccn1.[Cl][Ir+2]
b. Cc1ccc(C(C)C)cc1.F[P-](F)(F)(F)(F)F.NC1C(c2cccnn2)OC(COC(=O)c2ccccc2)C(OC(=O)c2ccccc2)C1OC(=O)c1ccccc1.[Cl][Os+] (mixture of isomers)
(Q) Hi! Which is lower in terms of MIC, the first one a or the second one b ? Indicate your choice by writing its label.
(A) a
